# Read-out: Monokine induced gamma interferon (MIG), CXCL9 (gene 4283)
# protocol-details: BSK_hDFCGF_MIG: BioMAP Diversity Plus: hDFCGF Assay for Monokine induced gamma interferon (MIG) Biomarker Activity (AID 2283063)
# condition: primary human foreskin fibroblasts; actives raise or lower the signal
Activity calls are given as the source filed them. Rule for the calls: active = hit-call score of the fitted dose curve at least 0.9, where 1 is the maximum; inactive = score below 0.9.
Lab note: assign the record to one of active, inactive

Consider the following illustrative entries.
Nc1c(Oc2ccccc2)cc(O)c2c1C(=O)c1ccccc1C2=O ... active
CCOC(=O)C(SP(=S)(OC)OC)c1ccccc1 (configuration not stated) ... inactive
c1ccc(-c2cccc(-c3ccccc3)c2)cc1 ... inactive
Clc1cccc(Cl)c1Cl ... inactive
N#Cc1cccnc1 ... inactive
OCCCCO ... inactive
[Cl][Sn]([c]1ccccc1)([c]1ccccc1)[c]1ccccc1 ... active
CN(C)C(=S)S ... active
O=C(N[C@H]1CN2CCC1CC2)c1ccc2c(c1)OCCO2 ... inactive
OCCN(CCO)CCO ... inactive

Assay outcome for Cc1cc(C(C)(C)c2ccc(O)c(C)c2)ccc1O : what was it? inactive

Assay outcome for CCCCCCCCCCCCc1cccc(S(=O)(=O)O)c1 : what was it? active

Assay outcome for CC(C)O.CC(C)O.OCCN(CCO)CCO.OCCN(CCO)CCO.[Ti] : what was it? active

Assay outcome for CCOC(=O)CCN(SN(C)C(=O)Oc1cccc2c1OC(C)(C)C2)C(C)C : what was it? active

Assay outcome for CC(C)N(C(=O)CCl)c1ccccc1 : what was it? active

Assay outcome for N#CCCC(Br)(C#N)CBr (configuration not stated) : what was it? active

Assay outcome for O=C(O)C1(c2ccc3c(c2)OC[C@H](Cc2ccc(-c4ccccc4)cc2)[C@H]3O)CCCC1 : what was it? active

Assay outcome for O=C1C=CC(=O)c2ccccc21 : what was it? active

Assay outcome for C=CC(Cl)CCl (configuration not stated) : what was it? inactive

Assay outcome for Clc1cccc(Cl)c1 : what was it? inactive

Assay outcome for CC1(C)[C@H](C(=O)O[C@H](C#N)c2cccc(Oc3ccccc3)c2)[C@@H]1/C=C(\Cl)C(F)(F)F : what was it? inactive

Assay outcome for C[C@]12CC[C@@H](O)C[C@@H]1CC[C@@H]1[C@@H]2CC[C@]2(C)C(=O)CC[C@@H]12 : what was it? inactive

Assay outcome for O=[N+]([O-])c1cccc2ccccc12 : what was it? inactive

Assay outcome for CC(C)=CC1C(C(=O)OCc2cccc(Oc3ccccc3)c2)C1(C)C (configuration not stated) : what was it? inactive

Just for reference, PubChem BioAssay (EPA / NIEHS) is where these values come from.
